pKi overview
tested-on: Solute carrier family 15 member 1 (Homo sapiens, UniProt P46059)
Sequence (P46059 whole entry): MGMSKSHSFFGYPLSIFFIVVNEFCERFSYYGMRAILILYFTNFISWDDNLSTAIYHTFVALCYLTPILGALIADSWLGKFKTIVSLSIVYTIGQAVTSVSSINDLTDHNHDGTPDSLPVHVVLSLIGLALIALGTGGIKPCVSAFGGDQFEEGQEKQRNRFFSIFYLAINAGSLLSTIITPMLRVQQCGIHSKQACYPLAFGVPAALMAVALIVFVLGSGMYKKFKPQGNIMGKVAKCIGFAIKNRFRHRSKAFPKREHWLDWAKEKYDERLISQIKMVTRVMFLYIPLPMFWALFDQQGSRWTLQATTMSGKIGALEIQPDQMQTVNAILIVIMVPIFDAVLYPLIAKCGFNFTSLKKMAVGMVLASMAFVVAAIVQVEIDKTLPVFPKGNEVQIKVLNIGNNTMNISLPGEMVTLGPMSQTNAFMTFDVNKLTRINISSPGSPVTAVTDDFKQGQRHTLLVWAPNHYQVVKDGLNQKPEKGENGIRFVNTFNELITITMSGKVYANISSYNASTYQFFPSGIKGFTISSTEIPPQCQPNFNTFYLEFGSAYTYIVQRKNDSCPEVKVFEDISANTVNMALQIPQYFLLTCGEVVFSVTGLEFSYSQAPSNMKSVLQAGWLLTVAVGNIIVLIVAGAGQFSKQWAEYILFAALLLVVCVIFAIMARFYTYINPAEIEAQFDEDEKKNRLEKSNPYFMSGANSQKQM
assay-comment: TP_TRANSPORTER: inhibition of VACV uptake in PEPT1-expressing CHO cells
Where a SMILES comes first, the peptide text is derived from it. [ ]: non-standard residue; d: D form. Sar = CNCC(=O)O
Value format note: pKi is -log10 of concentration (mol/L); just state the number.

molecule	data-value
CC1=C(C(=O)O)N2C(=O)[C@@H](NC(=O)[C@H](N)c3ccc(O)cc3)[C@H]2SC1	2.04

Q) Provide pKi value for the following molecule: CN(CC(=O)O)C(=O)CN [GLYCYLSARCOSINE] (H-Gly-[Sar]-OH)
A) 1.89
